Measured growth, listed per entry.
- Tested on: SK-MEL-5 melanoma
- measurement-notes: NCI-60 one-dose screen, 48 h (100 = growth as untreated, 0 = no growth, -100 = all killed)
- settings: 10 µM unless noted
- Procedure: Growth inhibition of the SK-MEL-5 human tumor cell line is measured as a screen for anti-cancer activity. Cells are grown in 96 well plates and exposed to the test compound for 48 hours. Compounds are tested at a single concentration, which is 10^-5 M for most compounds. The reported endpoint is percent growth (GI% or GIPRCNT), where numbers from 0 - 100% represent growth inhibition, and numbers from -100% - 0 represent cell death. For example, a value of 40 represents 60% growth inhibition. […]
This is part of a sample that, as a whole, favours compounds with a hit. Of some 83,000 tested, about 20% had one in any assay.

molecule	test-system	units-label	growth
O=C(Nc1nc2ccccc2s1)c1cc(-c2ccc(F)cc2)n2nc(-c3ccccc3)cc2n1	SK-MEL-5 melanoma	%	72.6
O=C1Nc2ccccc2C12Nc1cc(Cl)ccc1S2 (stereo not given)	SK-MEL-5 melanoma	%	81.7
N#Cc1c(N2CCOCC2)nc2sc3cc(Cl)ccc3n2c1=N	SK-MEL-5 melanoma	%	78.3
CCN(CC)CCOc1ccc(C2=C(c3ccccc3)CCc3cc(OC)ccc32)cc1	SK-MEL-5 melanoma	%	-68
CC(C)c1ccc(C(=O)Nc2sc3c(CN(C)C)c(O)ccc3c2C(N)=O)cc1	SK-MEL-5 melanoma	%	88.3
O=C(O)c1ccc(NC(=O)c2cccc(Nc3ccnc(C(F)(F)F)c3)c2)cc1	SK-MEL-5 melanoma	%	101
CC(C)[C@]12O[C@H]1[C@@H]1O[C@]13[C@]1(O[C@H]1C[C@H]1C4=C(CC[C@@]13C)C(=O)OC4)[C@@H]2OC(=O)CN(C)C	SK-MEL-5 melanoma	%	-20.1
Cc1c(NCc2nnc3n(Cc4ccccc4)c(=O)c4c5c(sc4n23)CCCC5)c(=O)n(-c2ccccc2)n1C	SK-MEL-5 melanoma	%	81
N#Cc1c(N)[nH]c(S)c1C#N	SK-MEL-5 melanoma	%	96.9
CN1COc2ccc3ccccc3c2C1	SK-MEL-5 melanoma	%	105

====

- Tested on: CAKI-1 renal
- measurement-notes: NCI-60 one-dose screen, 48 h (100 = growth as untreated, 0 = no growth, -100 = all killed)
- settings: 10 µM unless noted
Compounds without any hit were thinned out: in the full panel of roughly 83,000, 20% have a hit.
Class MET: growth at least 60%. Class NOT MET: growth below 60%.

molecule	answer-label
Nc1ccc2c(c1)/C(=N/O)c1cc([N+](=O)[O-])ccc1-2	NOT MET
Cc1ccc(C(=O)Nc2ccc(Cl)cc2C(=O)NCc2ccccc2)cc1	MET
Cc1cc(C)n(C(=O)c2nn(-c3ccc(Cl)cc3)cc2O)n1	MET
C=C(C)[C@@H]1C/C=C(/C=O)CC[C@@H]2O[C@@]2(C)CC/C=C(\C)CC1	NOT MET
CCC(C)CC(C)C(=O)c1c(O)ccn(OC)c1=O (stereo not given)	MET
CCC[C@H](N[C@@H](C)C(=O)N1[C@H](C(=O)O)C[C@@H]2CCCC[C@@H]21)C(=O)OCC	MET
O=C(/C=C/c1cccnc1)/C=C/c1cccnc1	NOT MET
COc1cc(/C=C/C(=O)c2c(-c3ccc(F)cc3)nc3sc(C)nn23)cc(OC)c1OC	NOT MET
CCN(CC)CCOc1ccc(C2=C(c3ccccc3)CCc3cc(OC)ccc32)cc1	NOT MET

====

- Test system: A498 renal
- measurement-notes: NCI-60 one-dose screen, 48 h (100 = growth as untreated, 0 = no growth, -100 = all killed)
- settings: 10 µM unless noted
- Procedure: Growth inhibition of the A498 human tumor cell line is measured as a screen for anti-cancer activity. Cells are grown in 96 well plates and exposed to the test compound for 48 hours. Compounds are tested at a single concentration, which is 10^-5 M for most compounds. The reported endpoint is percent growth (GI% or GIPRCNT), where numbers from 0 - 100% represent growth inhibition, and numbers from -100% - 0 represent cell death. For example, a value of 40 represents 60% growth inhibition. […]
The panel holds about 83,000 compounds, 20% with a hit somewhere; the sample as a whole holds those more often.
Please mark condition met if the recorded growth is equal to or greater than 80%, and condition not met if it falls below.

compound	answer-label
COc1ccc(-c2csc(NC(=O)c3cc(OC)c(OC)c(OC)c3)n2)cc1	condition met
COc1ccccc1[C@H]1c2[nH]c3ccccc3c2C[C@H]2C(=O)N(CCCCCCC(=O)NO)CC(=O)N12	condition not met
NC(=O)c1ncn([C@@H]2O[C@H](CO)[C@@H](O)[C@H]2O)n1	condition met
CC(=O)c1ccc2c3c(n(C)c2c1)CCCC3	condition not met
CCOC(=O)C1=C(C)N2C(=NC3=C(CCC/C3=C\c3ccc(Cl)cc3)C2c2ccc(Cl)cc2)S1 (stereo not given)	condition not met
Cc1cc2cn3c4cccnc4[nH]c(=O)c3c2cc1C	condition met
Nc1nc(N)c([N+](=O)[O-])c(=O)[nH]1	condition met
CCOC(=O)/C=C(/C)Sc1cc(O)c2ccccc2c1O	condition met
CC[C@@H]1OC(=O)[C@H](C)[C@@H](O[C@H]2C[C@@](C)(OC)[C@@H](O)[C@H](C)O2)[C@H](C)[C@@H](O[C@@H]2O[C@H](C)C[C@H](N(C)C)[C@H]2O)[C@](C)(O)C[C@@H](C)[C@@H]2N[C@@H](COCCOC)O[C@H]([C@H]2C)[C@]1(C)O	condition met
Cc1nc(N)[nH]c(=O)c1C	condition met
Clc1ccc(-c2nc(-c3cccs3)no2)c(Cl)c1	condition met
N=c1ccn2c(n1)O[C@@H]1[C@@H](O)[C@H](CO)O[C@@H]12	condition met
O=C1/C(=C/c2ccc3cccc(Cl)c3n2)SC(=S)N1CCc1ccc(O)cc1	condition not met
CCCCCCCCCCCCNc1ncnc2[nH]ncc12	condition not met
Cc1nn(-c2ccc(Cl)cc2)c2nc3c(nc12)C(=O)c1ccccc1-3	condition not met
Fc1ccc(-c2nc(Nc3ccc(-c4nc5ccccc5[nH]4)cc3)nc(N3CCOCC3)n2)cc1	condition not met
O=C(C(Br)Br)C(Br)C(Br)c1ccccc1 (stereo not given)	condition met
C=C(C)[C@@H]1C/C=C(/C=O)CC[C@@H]2O[C@@]2(C)CC/C=C(\C)CC1	condition met

====

- System: NCI/ADR-RES ovarian
- measurement-notes: NCI-60 one-dose screen, 48 h (100 = growth as untreated, 0 = no growth, -100 = all killed)
- settings: 10 µM unless noted
Compounds without any hit were thinned out: in the full panel of roughly 83,000, 20% have a hit.
# note: exactly 90% is not below, so it is not fulfilled; use fulfilled for growth strictly under it

compound	answer-label
Nc1nc(N)c([N+](=O)[O-])c(=O)[nH]1	not fulfilled
O=C(Nc1ccncc1)C(=O)c1cn(S(=O)(=O)c2cccc(F)c2)c2ccccc12	fulfilled
O=[N+]([O-])c1ccc(N/N=C\c2ccccc2[N+](=O)[O-])nc1	not fulfilled
Cn1[nH]cc(/C=N/C(N)=O)c1=O	not fulfilled
Cc1cc2c(cc1[N+](=O)[O-])NC(CNC(C)C)CC2 (stereo unspecified)	not fulfilled
COc1ccc(COC(C)=O)cc1	not fulfilled
O=C(/C=C/c1ccccc1Cl)c1ccc(O)cc1	not fulfilled
C/C(=C\CCc1ccsc1)CC/C=C(\C)CCCN1CCC(CO)CC1	fulfilled
CCOC(=O)C1=C(COCCN)NC(C)=C(C(=O)OC)C1c1ccccc1Cl (stereo unspecified)	fulfilled
C/C(=N\N1CC(=O)NC1=O)c1ccc([N+](=O)[O-])o1	not fulfilled

====

- System: NCI-H23 lung
- measurement-notes: NCI-60 one-dose screen, 48 h (100 = growth as untreated, 0 = no growth, -100 = all killed)
- settings: 10 µM unless noted
Compounds without any hit were thinned out: in the full panel of roughly 83,000, 20% have a hit.

compound-structure-string	units-label	growth
Cc1ccc(NC(=O)CSc2nnc3n(Cc4ccccc4)c(=O)c4c(C)c(C(N)=O)sc4n23)cc1	%	78.4
CC[C@@H]1OC(=O)[C@H](C)[C@@H](O[C@H]2C[C@@](C)(OC)[C@@H](O)[C@H](C)O2)[C@H](C)[C@@H](O[C@@H]2O[C@H](C)C[C@H](N(C)C)[C@H]2O)[C@](C)(O)C[C@@H](C)[C@@H]2N[C@@H](COCCOC)O[C@H]([C@H]2C)[C@]1(C)O	%	94
COc1ccc(-c2oc3cc(O)c(OC)c(O)c3c(=O)c2OC)cc1O	%	16.1
COc1cc(/C=C/C(=O)N2CCN(C(=O)/C=C/c3ccccc3)CC2)cc(OC)c1OC	%	108
COc1ncc(-c2ccc3nccc(C#CCN4CCN(S(C)(=O)=O)CC4)c3c2)cc1NS(=O)(=O)c1ccc(F)cc1F	%	6.7
O=C(O)C(=O)O	%	15.2
CCOc1cc(-c2ccc[nH]2)[nH]c1/C=C1\N=C(C)C(C(=O)OC)=C1C	%	-59.4
COc1ccc(OC)c(/C=C/c2nc(=S)n(-c3ccc(Cl)cc3)[nH]2)c1	%	48.7
